# protocol-notes: Lipophilicity, logD of the compound at pH 7.4
# Type: physicochemical
# condition-parameters: buffer
reported-endpoint: logD
The response must contain the number and no unit.

COc1ccc(S(=O)(=O)Nc2ccc(-c3cccnc3)cc2F)cc1OC 1.7
COc1cc(C(=O)Nc2ccc(-c3cc(F)cc(F)c3)cc2N)cc(OC)c1OC 2.62
COc1cc(C(=O)N(C)c2ccc(-c3cccnc3)cc2F)cc(OC)c1OC 2.32

Request: Give its logD value. Item: O=C(Nc1ccc(-c2cccnc2)cc1F)c1cccnc1
Response: 1.97

Request: Likewise for COc1ccc(-c2ccc(NC(=O)c3cc(OC)c(OC)cc3OC)c(F)c2)cc1 ?
Response: 3.64

* * *

# assay-system: ATP-dependent translocase ABCB1 (Homo sapiens, UniProt P08183)
# Sequence (P08183 whole entry): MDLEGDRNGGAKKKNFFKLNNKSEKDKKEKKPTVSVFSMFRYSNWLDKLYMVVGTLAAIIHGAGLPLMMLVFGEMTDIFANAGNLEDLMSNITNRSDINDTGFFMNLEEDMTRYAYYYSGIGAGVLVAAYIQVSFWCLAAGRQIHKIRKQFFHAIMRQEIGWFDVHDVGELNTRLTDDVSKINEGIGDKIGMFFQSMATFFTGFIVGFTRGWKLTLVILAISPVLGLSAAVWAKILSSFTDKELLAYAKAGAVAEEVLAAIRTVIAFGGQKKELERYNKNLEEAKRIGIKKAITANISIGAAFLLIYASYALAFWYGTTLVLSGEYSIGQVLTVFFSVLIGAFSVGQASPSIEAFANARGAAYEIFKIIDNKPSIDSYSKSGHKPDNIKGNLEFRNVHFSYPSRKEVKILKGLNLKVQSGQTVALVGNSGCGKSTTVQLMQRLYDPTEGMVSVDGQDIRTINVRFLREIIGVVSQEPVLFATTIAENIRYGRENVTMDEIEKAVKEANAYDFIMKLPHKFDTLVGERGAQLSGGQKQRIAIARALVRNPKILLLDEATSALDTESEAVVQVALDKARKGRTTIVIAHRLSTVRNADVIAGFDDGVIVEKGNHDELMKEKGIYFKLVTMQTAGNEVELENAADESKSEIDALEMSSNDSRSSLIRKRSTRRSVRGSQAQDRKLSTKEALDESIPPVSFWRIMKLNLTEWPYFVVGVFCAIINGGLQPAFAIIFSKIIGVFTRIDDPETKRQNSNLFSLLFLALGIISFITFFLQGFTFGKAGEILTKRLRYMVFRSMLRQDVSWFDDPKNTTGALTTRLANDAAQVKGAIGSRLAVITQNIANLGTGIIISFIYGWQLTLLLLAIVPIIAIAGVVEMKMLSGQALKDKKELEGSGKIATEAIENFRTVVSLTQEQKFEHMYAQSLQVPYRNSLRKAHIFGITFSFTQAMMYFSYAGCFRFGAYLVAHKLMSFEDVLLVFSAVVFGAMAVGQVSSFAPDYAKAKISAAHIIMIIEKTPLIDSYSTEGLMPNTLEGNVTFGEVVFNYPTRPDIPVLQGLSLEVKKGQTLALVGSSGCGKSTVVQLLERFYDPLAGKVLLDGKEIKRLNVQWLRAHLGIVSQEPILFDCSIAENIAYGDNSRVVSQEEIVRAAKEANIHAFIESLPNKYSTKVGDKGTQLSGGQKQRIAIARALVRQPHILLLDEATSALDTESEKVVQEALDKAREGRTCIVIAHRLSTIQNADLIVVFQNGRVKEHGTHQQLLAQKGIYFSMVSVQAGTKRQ
# protocol-notes: Inhibition of MDR1 (unknown origin) expressed in MDCK cells after 30 mins by Calcein-AM assay
pIC50: −log10 of the molar value.
Hi, to clarify the labels: satisfied covers pIC50 from 6 upward, not satisfied covers anything below 6.

These solved cases illustrate the format of a correct answer.
COc1cc(OC)c(C(=O)Nc2ccc(-c3cccnc3)cn2)cc1OC satisfied
COc1cc(OC)c(C(=O)N(C)c2ccc(-c3cccnc3)cc2F)cc1OC not satisfied
COc1ccc(C(=O)Nc2ccc(-c3cccnc3)cc2F)cc1 not satisfied

Then there is this molecule:
Request: Decide: is the reported value of pIC50 for COc1cc(C(=O)Nc2ccc(-c3cc(F)cc(F)c3)cc2N)cc(OC)c1OC equal to or greater than 6?
Response: not satisfied

* * *

# protocol-notes: Lipophilicity, logD of the compound at pH 7.4
# Type: physicochemical
# condition-parameters: buffer
Exam item: assign met to entries whose logD is below 3 and not met to entries at or above 3. Note that a value of exactly 3 receives not met.

These solved cases illustrate the format of a correct answer.
COc1cc(OC)c(C(=O)Nc2ccc(-c3cccnc3)cc2F)c(OC)c1 met
COc1ccc(C(=O)Nc2ccc(-c3cccnc3)cc2F)cc1 met

Then there is this compound:
Request: Is the reported logD for COc1cc(C(=O)Nc2ccc(-c3cc(F)cc(F)c3)cn2)cc(OC)c1OC strictly below 3?
Response: not met

* * *

# protocol-notes: Solubility after 30 mins by turbidimetric solubility assay
# Type: physicochemical
Reported solubility kinetic at 0.5 h is given for each of the following compounds.
Please state the figure in µg/mL; there is no need to write the unit.

In the examples that follow, each entry is paired with its recorded solubility kinetic at 0.5 h.
COc1cc(C(=O)Nc2ccc(-c3cccnc3)cc2[N+](=O)[O-])cc(OC)c1OC 10
COc1cc(OC)cc(C(=O)Nc2ccc(-c3cccnc3)cc2F)c1 20
O=C(Nc1ccc(-c2cccnc2)cc1F)c1cccnc1 300

Shift focus to the following entry.
Request: Give its solubility kinetic at 0.5 h value. Item: O=C(Nc1ccc(-c2cccnc2)cc1F)c1ccccc1
Response: 40

* * *

# assay-system: ATP-dependent translocase ABCB1 (Homo sapiens, UniProt P08183)
# protocol-notes: Inhibition of MDR1 (unknown origin) expressed in MDCK cells after 30 mins by Calcein-AM assay
reported-endpoint: IC50 (µM)
Please state the figure in µM; there is no need to write the unit.

In the examples that follow, each entry is paired with its recorded IC50.
COc1cc(C(=O)Nc2ccc(-c3cccnc3)cn2)cc(OC)c1OC 8.21
COc1cc(OC)c(C(=O)Nc2ccc(-c3cccnc3)cc2F)cc1OC 0.2
COc1cc(OC)cc(C(=O)Nc2ccc(-c3cccnc3)cc2F)c1 3.3
COc1ccc(-c2ccc(NC(=O)c3cc(OC)c(OC)cc3OC)c(F)c2)cc1 1.23
O=C(Nc1ccc(-c2cccnc2)cc1F)c1ccccc1 9.2

Request: Give its IC50 value. Item: COc1ccc(S(=O)(=O)Nc2ccc(-c3cccnc3)cc2F)cc1OC
Response: 67.5

Request: Likewise for COc1cc(C(=O)N(C)c2ccc(-c3cccnc3)cc2F)cc(OC)c1OC ?
Response: 6.66

Request: Likewise for COc1cc(OC)c(C(=O)Nc2ccc(-c3cccnc3)cc2F)c(OC)c1 ?
Response: 2.93

Request: Likewise for COc1cc(OC)c(C(=O)Nc2ccc(-c3cc(F)cc(F)c3)cn2)cc1OC ?
Response: 0.97

Request: Likewise for COc1ccc(C(=O)Nc2ccc(-c3cccnc3)cc2F)c(OC)c1OC ?
Response: 0.67

Request: Likewise for O=C(Nc1ccc(-c2cccnc2)cc1F)c1cccnc1 ?
Response: 60.1
